- System: CP269
- methodDescription: qHTS profiling for inhibitors of Plasmodium falciparum proliferation (AID 504749); note: nearly all actives have a fitted effect of over 60% in size
- reportedConditions: P. falciparum in erythrocytes, SYBR Green DNA, 72 h; series mostly up to 28.7 µM
Inconclusive results are not listed. The source made the active and inactive calls. Calls come from the whole dose curve; as a rule, active = well fitted inhibition curve with a large enough effect; inconclusive = small, poorly fitted or top-dose-only effect; inactive = flat fitted curve, though single readings scatter.
Possible outcomes: label 1 for active, label 0 for inactive

{"molecule": "Cc1cccc(C)c1NC(=O)CN(CC(=O)O)CC(=O)O", "categoryLabel": "label 0"}
{"molecule": "O=c1cc[nH]c(=S)[nH]1", "categoryLabel": "label 0"}
{"molecule": "Oc1cccc(O)c1", "categoryLabel": "label 0"}
{"molecule": "CCCCN1CCCC[C@H]1C(=O)Nc1c(C)cccc1C", "categoryLabel": "label 0"}
{"molecule": "O=C1NC(=O)[C@@]2(CCOc3ccc(F)cc32)N1", "categoryLabel": "label 0"}
{"molecule": "CCN(CC)CCNC(=O)c1c(C)[nH]c(/C=C2\\C(=O)Nc3ccc(F)cc32)c1C", "categoryLabel": "label 1"}
{"molecule": "O=C(Oc1ccccc1C(=O)O)c1ccccc1O", "categoryLabel": "label 0"}
{"molecule": "O=C(O)[C@@H]1CSCN1", "categoryLabel": "label 0"}
{"molecule": "NCCNCCNCCNCCN", "categoryLabel": "label 0"}
{"molecule": "CCCCN(CCCC)CCCOC(=O)c1ccc(N)cc1", "categoryLabel": "label 0"}
{"molecule": "CC1(C)[C@@H]2CC[C@@]1(C)C(=O)C2", "categoryLabel": "label 0"}
{"molecule": "C[C@](N)(Cc1ccc(O)cc1)C(=O)O", "categoryLabel": "label 0"}
{"molecule": "CCN(CC)CCNC(=O)c1cc(Cl)c(N)cc1OC", "categoryLabel": "label 0"}
{"molecule": "CCN(CC)CCSC(=O)C(c1ccccc1)c1ccccc1", "categoryLabel": "label 0"}
{"molecule": "Cn1c(=O)c2c(ncn2CC2OCCO2)n(C)c1=O", "categoryLabel": "label 0"}
{"molecule": "CCCCCCCCCCCCCCCCCCOCC(O)CO (stereo not drawn)", "categoryLabel": "label 0"}
{"molecule": "O=C(O)c1ccccn1", "categoryLabel": "label 0"}
{"molecule": "Cc1cc(O)cc2c1O[C@](C)(CCC[C@H](C)CCC[C@H](C)CCCC(C)C)CC2", "categoryLabel": "label 0"}
{"molecule": "CCC(=O)Nc1ccc(O)cc1", "categoryLabel": "label 0"}
{"molecule": "Cc1ccc(C(C)C)cc2c(C)ccc1-2", "categoryLabel": "label 0"}
{"molecule": "Nc1ccc(S(=O)(=O)Nc2ccccc2)cc1", "categoryLabel": "label 0"}
{"molecule": "C[C@]12C[C@H](O)[C@H]3[C@@H](CCC4=CC(=O)CC[C@@]43C)[C@@H]1CC[C@@H]2C(=O)CO", "categoryLabel": "label 0"}
{"molecule": "O=c1cc[nH]c(=O)[nH]1", "categoryLabel": "label 0"}
{"molecule": "COc1ccc2[nH]c(S(=O)Cc3ncc(C)c(OC)c3C)nc2n1 (stereo not drawn)", "categoryLabel": "label 0"}
{"molecule": "COc1ccc(Cl)cc1C(=O)NCCc1ccc(S(=O)(=O)NC(=O)NC2CCCCC2)cc1", "categoryLabel": "label 0"}
{"molecule": "CCCCOC(=O)c1ccc(O)cc1", "categoryLabel": "label 0"}
{"molecule": "NC1CCN(c2cccc(Cl)n2)CC1", "categoryLabel": "label 0"}
{"molecule": "CCOc1ccc2ccccc2c1C(=O)N[C@@H]1C(=O)N2[C@@H]1SC(C)(C)[C@@H]2C(=O)O", "categoryLabel": "label 0"}
